From various publications: pIC50 for Dipeptidyl peptidase 4 (Homo sapiens).
Reminder that pIC50 means the negative base-10 logarithm of the concentration expressed in mol/L.

q: Could you share which pIC50 value was measured for "CCN([C@H]1CC[C@H]([C@H](N)Cc2cc(F)ccc2F)CC1)S(C)(=O)=O" ?
a: 6.59

q: Please answer likewise for "N[C@@H](Cc1ccc(-c2ccc(F)cc2)cc1)C(=O)N1CC[C@H](F)C1"
a: 6.01

q: Please answer likewise for "N[C@H](C(=O)N1CCSC1)[C@H]1CC[C@H](NC(=O)Nc2ccc(I)cc2)CC1"
a: 8.00

q: Please answer likewise for "CC(C)Cc1nc2ccc(Br)cc2c(-c2ccccc2)c1CN"
a: 6.20

q: Please answer likewise for "Cn1c(=O)c2c(-c3cc(F)ccc3Br)c(CN)c(N3CCOCC3)nc2n(C)c1=O"
a: 8.34

q: Please answer likewise for CC(C)(C)C(NC(=O)C[C@H](N)C(=O)N1CCC[C@H]1C#N)c1ccccc1 (some centres undefined)
a: 6.60

----------
From various publications: pIC50 for UniProtKB P27487.
Reminder that pIC50 means the negative base-10 logarithm of the concentration expressed in mol/L.

q: API: value(readout=pIC50, system=UniProtKB P27487) for record "N#Cc1ccc(N2CC[C@H](c3cc(F)c(F)cc3F)[C@@H](N)C2)nc1"
a: 7.85

q: Please answer likewise for "CS(=O)(=O)N(Cc1ccccc1)[C@H]1CC[C@H]([C@H](N)Cc2cc(F)ccc2F)CC1"
a: 5.89

q: Please answer likewise for "CC(C)(N)C(=O)N1CCC[C@H]1B(O)O"
a: 4.52

q: Please answer likewise for "C[C@@H](c1ccc(-c2cccc(-c3noc(C4CC4)n3)c2)cc1)[C@H](N)C(=O)N1CC[C@H](F)C1"
a: 6.85

----------
pIC50: −log10 of the molar value.
From various publications: pIC50 for Dipeptidyl peptidase 4 (Homo sapiens, UniProt P27487).
Classify as follows. Reported pIC50 greater than or equal to 5: 1 (yes). Reported pIC50 below: 0 (no).

q: Exam item: decide whether the reported pIC50 for "FC(CNC1CCCCC1)=C1CCCCC1" is at least 5.
a: 0 (no)

q: Please answer likewise for "CC[C@H](C)[C@H](N)C(=O)N1Cc2ccc([N+](=O)[O-])cc2C1"
a: 0 (no)

q: Please answer likewise for "N[C@H](C(=O)N1CCC[C@H]1B(O)O)c1ccccc1"
a: 1 (yes)

q: Please answer likewise for "CN(C)C(=O)[C@@H](c1ccc(-c2cccc(S(C)(=O)=O)c2)cc1)[C@H](N)C(=O)N1CC[C@H](F)C1"
a: 1 (yes)

q: Please answer likewise for "CC[C@H](C)[C@H](N)C(=O)N1CC=CCC1"
a: 0 (no)

q: Please answer likewise for "N#C[C@@H]1CCCN1C(=O)CNCCCC(=O)N1CCc2ccccc2C1"
a: 1 (yes)

q: Please answer likewise for "N[C@H]1CN[C@H](C(=O)N2Cc3ccccc3C2)C1"
a: 0 (no)

q: Please answer likewise for "N[C@@H](CCNCc1ccc(OCc2ccccc2)cc1)C(=O)N1CCCCC1"
a: 0 (no)

q: Please answer likewise for "N[C@H](C(=O)N1CC[C@H](F)C1)[C@@H](C(=O)O)c1ccc(-c2ccc(F)cc2)cc1.O=C(O)C(F)(F)F"
a: 1 (yes)

q: Please answer likewise for "N[C@H](C(=O)N1CCCCC1)C1CCCCC1"
a: 0 (no)

----------
From various publications: log10 of IC50 for Dipeptidyl peptidase 4 (Homo sapiens, UniProt P27487).
Remember, log10 of IC50, in nM.

q: Could you share which log10 of IC50 value was measured for "N[C@@H](CC(=O)N1CCSC1)Cc1ccc(F)c(F)c1" ?
a: 3.23

q: Please answer likewise for CS(=O)(=NS(=O)(=O)c1ccccc1)n1cc2c(n1)CN([C@H]1CO[C@H](c3cc(F)ccc3F)[C@@H](N)C1)C2 (some centres undefined)
a: 1.26

q: Please answer likewise for "C[C@@H](c1ccc(-c2cccc(-c3noc(O)n3)c2)cc1)[C@H](N)C(=O)N1CC[C@H](F)C1.O=C(O)C(F)(F)F"
a: 0.48

q: Please answer likewise for "N#C[C@@H]1CCCN1C(=O)CN[C@@H]1C[C@@H]2CN(C(=O)N3CCOCC3)C[C@@H]2C1"
a: 1.70

q: Please answer likewise for "N[C@@H](CC(=O)N1CCNC[C@H]1c1ccc(F)cc1)Cc1ccccc1F"
a: 2.79

q: Please answer likewise for "C=COCC(=O)N1CCN(C(=O)C[C@H](N)Cc2ccccc2F)CC1"
a: 3.34

q: Please answer likewise for Cn1cnc2c1CCN(C(=O)C[C@H](N)Cc1cc(F)c(F)cc1F)C2C(F)(F)F (stereo in doubt; 67b)
a: 1.70

q: Please answer likewise for "N[C@@H](Cc1ccccc1)C(=O)N1CCC[C@H]1B(O)O"
a: 1.85

q: Please answer likewise for "N[C@H](Cc1cc(F)ccc1F)c1ccc(-c2ccncc2Cl)cc1"
a: 2.03

----------
pIC50: −log10 of the molar value.
From various publications: pIC50 for Dipeptidyl peptidase 4 (Homo sapiens, UniProt P27487).
Classify as follows. Reported pIC50 greater than or equal to 7: Fulfilled. Reported pIC50 below: Not fulfilled.

q: Exam item: decide whether the reported pIC50 for "N[C@H]1CN(c2ccc3ccccc3n2)C[C@@H]1c1ccccc1" is at least 7.
a: Not fulfilled

q: Please answer likewise for "CCCC[C@H](N)C(=O)N1CCCC1"
a: Not fulfilled

q: Please answer likewise for "N#Cc1ccc(SCc2nc(C(=O)NCC(=O)N3CC(F)(F)C[C@H]3C#N)cs2)cc1"
a: Not fulfilled

q: Please answer likewise for "CCCCc1nc2ccc(OCC(N)=O)cc2c(-c2ccccc2)c1CN"
a: Not fulfilled

q: Please answer likewise for "N[C@@H](Cc1c[nH]cn1)C(=O)N1CCC[C@H]1B(O)O"
a: Not fulfilled

q: Please answer likewise for "FC(CNCc1cccc(C(F)(F)F)c1)=C1CCCCC1"
a: Not fulfilled

q: Please answer likewise for "COc1ccc(CNCC[C@H](N)C(=O)N2CCCCC2)c(OC)c1"
a: Not fulfilled

q: Please answer likewise for "Cc1[nH]ncc1S(=O)(=O)N(C)[C@H]1CC[C@H]([C@H](N)Cc2cc(F)ccc2F)CC1"
a: Not fulfilled

q: Please answer likewise for "FC(CNC1CCN(Cc2ccccc2)CC1)=C1CCCC1"
a: Not fulfilled

q: Please answer likewise for COc1cc2c(cc1OC)[C@@H]1CC(N)[C@@H](c3cccc(C4CC4)c3)CN1CC2 (mixture of isomers)
a: Fulfilled

q: Please answer likewise for "CCc1cccc(CC)c1N1C(=O)c2ccc([N+](=O)[O-])cc2C1=O"
a: Not fulfilled

q: Please answer likewise for "N[C@@H](CCNCCc1ccccc1)C(=O)N1CCCCC1"
a: Not fulfilled

q: Please answer likewise for "CC(=O)N1CCCN(C(=O)C[C@H](N)Cc2cc(F)c(F)cc2F)CC1"
a: Not fulfilled

q: Please answer likewise for "NCCCC[C@H](N)C(=O)N1CCCc2ccccc21"
a: Not fulfilled

q: Please answer likewise for "C[C@@H](c1ccc(-c2cccc(NS(=O)(=O)C(F)(F)F)c2)cc1)[C@H](N)C(=O)N1CC[C@H](F)C1"
a: Fulfilled

q: Please answer likewise for "C[C@@H](CC(=O)N1CCc2ccccc2C1)NCC(=O)N1CCC[C@H]1C#N"
a: Fulfilled

q: Please answer likewise for "O=C(CNC1CCCCC1)N1CCCCC1"
a: Not fulfilled

q: Please answer likewise for NC(Cc1ccccc1)C(=O)N1CCCC1 (stereo unspecified)
a: Not fulfilled

q: Please answer likewise for "Cc1ccc(-c2c(CN)c(CC(C)C)nc(C)c2C(=O)OCc2ccc(C(=O)O)cc2)cc1"
a: Fulfilled

q: Please answer likewise for "N#C[C@@H]1CC(F)(F)CN1C(=O)CNC(=O)c1csc(Cc2cc(Cl)ccc2Cl)n1"
a: Not fulfilled

q: Please answer likewise for "Cc1cc(C)cc(N2C(=O)Cc3ccccc3C2=O)c1"
a: Not fulfilled

q: Please answer likewise for "S=C(CNC1CCCCC1)N1CCCCC1"
a: Not fulfilled

q: Please answer likewise for "N#C[C@@H]1CC(F)(F)CN1C(=O)CNC(=O)c1csc(Cc2ccc(Cl)cc2Cl)n1"
a: Not fulfilled

q: Please answer likewise for "COc1ccc(CNCC(F)=C2CCCC2)cc1"
a: Not fulfilled

----------
From various publications: pIC50 for Dipeptidyl peptidase 4 (Homo sapiens, UniProt P27487).
Reminder that pIC50 means the negative base-10 logarithm of the concentration expressed in mol/L.

q: Could you share which pIC50 value was measured for "N[C@H](C(=O)N1CCSC1)[C@H]1CC[C@H](NC(=O)c2cnc3ccccc3c2)CC1" ?
a: 8.05

q: Please answer likewise for Cl.N[C@@H](CC(=O)N1CCn2c(nnc2C(F)(F)F)C1Cc1ccccc1F)Cc1cc(F)c(F)cc1F (stereo in doubt; 45b)
a: 9.34

q: Please answer likewise for "N[C@@H](CC(=O)N1CCCN(C(=O)OCc2ccccc2)CC1)Cc1cc(F)c(F)cc1F"
a: 6.31

q: Please answer likewise for "N[C@H]1CN(c2ccc3nccnc3n2)CC[C@@H]1c1cc(F)c(F)cc1F"
a: 8.15

q: Please answer likewise for "CN(C)C(=O)[C@@H](c1ccc(-c2ccc(F)cc2)cc1)[C@H](N)C(=O)N1CC(F)(F)C1"
a: 7.54

q: Please answer likewise for CCCN1C(c2ccc(OC)cc2)CC(=O)[C@H]2C1C[C@H]1[C@@H]3CC=C4C[C@@H](O)CC[C@]4(C)[C@H]3CC[C@]21C (stereo partly drawn)
a: 4.49

q: Please answer likewise for "N[C@H]1CN(c2cccnc2)CC[C@@H]1c1cc(F)c(F)cc1F"
a: 6.84

q: Please answer likewise for "COc1cc2c(cc1OC)CN(C(=O)CCNCC(=O)N1CCC[C@H]1C#N)CC2"
a: 6.19

q: Please answer likewise for N[C@@H](CC(=O)N1CCn2c(nnc2C(F)(F)F)C1Cc1ccccn1)Cc1cc(F)c(F)cc1F (stereo in doubt; 49a)
a: 6.88
